Every entry's value here was drawn from patent US8415351B2.

Biological target: HCV polymerase 1B (Δ21 NS5B, BK) (Hepatitis C virus genotype 1b)
Construct: 20 to 50 nM Δ21 NS5B
Sequence (P26663 2420-2989, stated change not applied): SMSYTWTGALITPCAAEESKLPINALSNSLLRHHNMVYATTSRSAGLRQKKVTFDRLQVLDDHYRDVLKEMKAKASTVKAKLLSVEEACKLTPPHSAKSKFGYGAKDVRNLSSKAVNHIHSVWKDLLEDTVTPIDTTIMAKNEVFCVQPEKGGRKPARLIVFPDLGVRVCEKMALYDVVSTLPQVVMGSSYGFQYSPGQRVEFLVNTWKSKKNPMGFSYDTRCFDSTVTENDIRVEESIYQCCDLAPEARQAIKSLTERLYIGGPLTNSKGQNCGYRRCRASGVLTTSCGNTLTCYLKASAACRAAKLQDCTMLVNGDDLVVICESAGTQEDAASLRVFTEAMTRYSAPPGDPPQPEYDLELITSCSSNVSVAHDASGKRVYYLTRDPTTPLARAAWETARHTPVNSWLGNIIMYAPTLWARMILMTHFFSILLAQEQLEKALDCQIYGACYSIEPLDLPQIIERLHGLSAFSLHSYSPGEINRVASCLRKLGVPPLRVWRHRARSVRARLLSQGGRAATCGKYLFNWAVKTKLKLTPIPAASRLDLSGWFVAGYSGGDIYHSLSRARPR
Assay: biochemical
pIC50: −log10 of the molar value.
Let's look at some compounds and their measured pIC50.
ENDPOINT LABEL: pIC50

• COc1c(C#Cc2ccc(NS(C)(=O)=O)cn2)cc(-n2ccc(=O)[nH]c2=O)cc1C(C)(C)C [IB-L2-1.8] = 7.00 to 8.00
• COc1ccc(OC)c(S(=O)(=O)Nc2ccc(NC(=O)c3cc(N4CCC(=O)NC4=O)cc(C(C)(C)C)c3OC)cc2)c1 [IA-L3-1.121] = 6.00 to 7.00
• COc1c(C(=O)Nc2ccc(NS(C)(=O)=O)cc2C)cc(N2CCC(=O)NC2=O)cc1C(C)(C)C [IA-L3-1.83] = 6.00 to 7.00
• CC(C)(C)c1cc(N2CCC(=O)NC2=O)cc(NC(=O)c2ccc(CS(C)(=O)=O)cc2)c1O [IA-L4-1.4] = < 6.00
• CC(C)(C)OC(=O)NC1CCN(Cc2cc(N3CCC(=O)NC3=O)cc(C(C)(C)C)c2O)C1 (stereo not drawn) [IA-L5-1-1.12] = < 6.00
• COc1c(C#Cc2ccc(NS(C)(=O)=O)c(F)c2)cc(N2CCC(=O)NC2=O)cc1C(C)(C)C [IA-L2-1.13] = > 8.00
• COc1c(C(=O)Nc2ccc(CC(=O)O)cc2)cc(N2CCC(=O)NC2=O)cc1C(C)(C)C [IA-L3-1.30] = 6.00 to 7.00
• COc1c(-c2ccc(CCNS(C)(=O)=O)cc2)cc(-n2ccc(=O)[nH]c2=O)cc1C(C)(C)C [IB-L0-1.4] = 7.00 to 8.00
• COc1c(C(=O)Nc2ccc(NS(=O)(=O)c3ccccc3)cc2)cc(N2CCC(=O)NC2=O)cc1C(C)(C)C [IA-L3-1.60] = 7.00 to 8.00
• COc1c(-c2ccc3c(c2)CC[C@H]3CNS(C)(=O)=O)cc(-n2ccc(=O)[nH]c2=O)cc1C(C)(C)C (single isomer, unassigned) [IB-L0-2.15] = 7.00 to 8.00
• CC(C)(C)c1cc(N2CCC(=O)NC2=O)cc(CN2CCOCC2)c1O [IA-L5-1-1.14, 2,2,2-trifluoroacetate] = < 6.00
• CN(c1ccc(NC(=O)c2cc(N3CCC(=O)NC3=O)cc(C(C)(C)C)c2O)cc1)S(C)(=O)=O [IA-L3-1.4] = 7.00 to 8.00
• COc1c(C(=O)Nc2ccc(N(C)S(C)(=O)=O)cc2)cc(N2CCC(=O)N(C)C2=O)cc1C(C)(C)C [IA-L3-1.25] = < 6.00
• COc1c(-c2ccc(NS(C)(=O)=O)cc2)cc(-n2ccc(=O)[nH]c2=O)cc1C(C)(C)C [IB-L0-1.2] = 6.00 to 7.00
• COc1c(-c2ccc3c(c2)CCC3C(=O)NS(C)(=O)=O)cc(-n2ccc(=O)[nH]c2=O)cc1C(C)(C)C (stereo not drawn) [IB-L0-2.34] = 7.00 to 8.00
